- experimental system: cloned human 5-HT2 receptor (Homo sapiens)
- Sequence (P28223 whole entry): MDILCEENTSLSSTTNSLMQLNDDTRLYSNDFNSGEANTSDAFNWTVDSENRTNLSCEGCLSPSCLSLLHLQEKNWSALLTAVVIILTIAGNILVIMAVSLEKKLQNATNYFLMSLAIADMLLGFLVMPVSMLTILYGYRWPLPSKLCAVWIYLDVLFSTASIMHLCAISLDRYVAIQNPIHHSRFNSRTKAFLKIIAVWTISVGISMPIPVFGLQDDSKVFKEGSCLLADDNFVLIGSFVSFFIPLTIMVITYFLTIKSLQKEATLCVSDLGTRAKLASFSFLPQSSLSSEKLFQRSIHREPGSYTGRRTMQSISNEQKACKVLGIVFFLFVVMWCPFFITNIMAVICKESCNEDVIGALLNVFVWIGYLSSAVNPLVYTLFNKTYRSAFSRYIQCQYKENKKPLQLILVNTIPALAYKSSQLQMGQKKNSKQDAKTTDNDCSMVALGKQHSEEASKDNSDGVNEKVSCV
measured attribute: pIC50
Schema: pIC50 number; meaning minus log10 of the concentration expressed in molar units.

Task: What measured pIC50 goes with CC(C)n1cc2c3c(cccc31)C1CC(C(=O)NC3CC3O)CN(C)C1C2 (stereo not shown) [drawing 3 NH 2-hydroxycyclopropyl] ?
Result: 7.56

----------
- experimental system: rat 5-HT2 receptor (Rattus norvegicus, UniProt P14842)
- Sequence (P14842 whole entry): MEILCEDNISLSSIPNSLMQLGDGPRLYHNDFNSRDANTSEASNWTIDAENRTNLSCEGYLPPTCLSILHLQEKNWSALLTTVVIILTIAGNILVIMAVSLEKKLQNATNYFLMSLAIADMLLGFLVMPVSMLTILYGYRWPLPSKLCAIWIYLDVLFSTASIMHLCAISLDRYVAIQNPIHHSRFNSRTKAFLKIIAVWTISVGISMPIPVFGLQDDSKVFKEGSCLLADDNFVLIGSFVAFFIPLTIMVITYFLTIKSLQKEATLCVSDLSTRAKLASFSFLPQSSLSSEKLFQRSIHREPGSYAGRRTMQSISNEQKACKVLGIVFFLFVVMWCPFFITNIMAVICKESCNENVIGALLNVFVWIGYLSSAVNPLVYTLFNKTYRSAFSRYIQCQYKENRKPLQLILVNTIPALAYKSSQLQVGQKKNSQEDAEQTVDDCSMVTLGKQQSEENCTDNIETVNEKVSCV
measured attribute: pIC50
As a rule, pIC50 stands for the negative log10 of the concentration, concentration in M.

Task: Recorded pIC50 for CC(C)n1cc2c3c(cccc31)C1CC(C(=O)NC3CC3O)CN(C)C1C2 (stereo not shown) [drawing 3 NH 2-hydroxycyclopropyl] , please?
Result: 8.24
